The reported numbers originate from patent US5457106A.

System: ART (antigen-responding T-cell)
Assay: In vitro ART (antigen-responding T-cell) proliferation test
Type: cell-based, Lewis rat
Conditions: Rattus norvegicus, T-cell, 1 μM; read-out: % Inhibition of ART growth
Where a name gives a salt, the structure may show the parent alone.
Below, each entry is listed with its recorded inhibition at 1 µM.

Give its inhibition at 1 µM value. Item: CC(C)(C)c1ccc(C(=O)NCCCSc2ccncc2)cc1 [Example 32, hydrochloride]
43%

Give its inhibition at 1 µM value. Item: O=C1SC(=Cc2ccccc2)C(=O)N1CCCCSc1ccccn1
3%

Give its inhibition at 1 µM value. Item: O=C1SC(=Cc2cccs2)C(=O)N1CCCCSc1ccncc1
-50%

Give its inhibition at 1 µM value. Item: O=C1c2ccccc2CN1CCCSc1ccncc1
30%

---
Give its inhibition at 1 µM value. Item: O=C(NCCCOc1ccncc1)c1ccccc1CO
19%

###

Below, each entry is listed with its recorded inhibition in vivo at 50 mg/kg.
Tested on: Mouse phenylquinone writhing
Assay: Mouse phenylquinone writhing inhibitory activity
Type: in vivo, mouse (Slc: ICR)
Settings: Mus musculus, po, 20 min, 50 mg/kg, orally; read-out: Inhibitory percentage (phenylquinone writhing)
Counter-ions that a name gives are not always drawn.
Report only the number, with the unit % understood.

Give its inhibition in vivo at 50 mg/kg value. Item: CC(=O)N(CCCSc1ccncc1)Cc1ccccn1
48

Give its inhibition in vivo at 50 mg/kg value. Item: CC(C)(C)c1ccc(C(=O)NCCCSc2ccncc2)cc1 [Example 32, hydrochloride]
63

Give its inhibition in vivo at 50 mg/kg value. Item: O=C1c2ccccc2CN1CCCSc1ccncc1
64

Give its inhibition in vivo at 50 mg/kg value. Item: O=C1c2ccccc2CN1CCSc1ccncc1
59

Consider now this further molecule.
Give its inhibition in vivo at 50 mg/kg value. Item: O=C1c2ccccc2C(=O)N1COc1ccccn1
49

###

Below, each entry is listed with its recorded inhibition at 1 µM.
Tested on: ART (antigen-responding T-cell)
Assay: In vitro ART (antigen-responding T-cell) proliferation test
Assay type: cell-based, Lewis rat
Details: Rattus norvegicus, T-cell, 1 μM; read-out: % Inhibition of ART growth
Counter-ions that a name gives are not always drawn.
Report only the number, with the unit % understood.

Give its inhibition at 1 µM value. Item: CCCCCCCCCCCCN(CCCSc1ccncc1)C(=O)C(F)(F)F [Example 94]
33

Give its inhibition at 1 µM value. Item: CCCCOc1ccc(C(=O)NCCCSc2ccncc2)cc1 [Example 35, hydrochloride]
18

Give its inhibition at 1 µM value. Item: O=c1c2ccccc2n(CCCCSc2ccncc2)c(=O)n1CCCCSc1ccncc1 [Example 147]
9

Give its inhibition at 1 µM value. Item: O=C(NCCCOc1ccncc1)c1cc2ccccc2s1 [Example 115, hydrochloride]
18

Give its inhibition at 1 µM value. Item: O=C1SC(=Cc2ccccc2)C(=O)N1CCCCSc1ccncc1 [Example 150]
-31

---
Give its inhibition at 1 µM value. Item: O=C1SC(=Cc2ccc(Cl)cc2)C(=O)N1CCCCSc1ccncc1 [Example 151]
-1

Give its inhibition at 1 µM value. Item: CCCCc1ccc(C(=O)NCCCSc2ccncc2)cc1 [Example 34, hydrochloride]
31

Give its inhibition at 1 µM value. Item: CC1(C)NC(=O)N(CCCCSc2ccncc2)C1=O [Example 140]
-9

Give its inhibition at 1 µM value. Item: O=C1C(=Cc2ccccc2)SC(=S)N1CCCCSc1ccncc1 [Example 153]
-20
